target: chicken IgY (chicken); assay: BLI; Octet, SAX (streptavidin) biosensors; recombinant Fabs against IgY; KD from a kinetic 1:1 model, global fit over multiple concentrations (partial fits averaged for 3 low-affinity Fabs)
Observable: koff (s⁻¹)
Return type: number; implicit unit s⁻¹.

Query: Annotate the binder clone 2.1 Fab TA_3 (Fab, V domains shown) VH: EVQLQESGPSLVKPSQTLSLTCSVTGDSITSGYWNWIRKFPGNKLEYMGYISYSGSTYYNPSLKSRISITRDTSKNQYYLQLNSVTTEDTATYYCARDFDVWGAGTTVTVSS VL: DIVMTQSQKFMSTSVGDRVSVTCKASQNVGTNVVWYQQKPGQSPKALIYSASYRYSGVPDRFTGSGSGTDFTLTISNVQSEDLAEYFCQQYNSYPLTFGSGTKLEIK with its measured koff.
Reply: 0.00767

Query: Annotate the binder clone 2.1 Fab TA_24 (Fab, V domains shown) VH: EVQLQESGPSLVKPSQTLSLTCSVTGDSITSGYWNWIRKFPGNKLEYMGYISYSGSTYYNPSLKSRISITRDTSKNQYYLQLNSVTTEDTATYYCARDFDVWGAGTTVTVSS VL: DIVMTQSQKFMSTSVGDRVSVTCKASQNVGTNVAWYQQKPGQSPKALIYSASYRYSGVPDRFTGSGSGTDFTLTISNVQSEDLAEYFCQQYYSYPLTFGSGTKLEIK with its measured koff.
Reply: 0.000911

Query: Annotate the binder clone 2.1 Fab CB_01 (clonal burst) (Fab, V domains shown) VH: EVQLQESGPSLVKPSQTLSLTCSVTGDSITSGYWNWIRKFPGNKLEYMGYISYSGSTYYNPSLKSRISFTRDTSKNQYYLQLNSVTTEDTATYYCARDFDVWGAGTTVTVSS VL: DIVMTQSQKFMSTSVGDRVSVTCKASQNVGTNVAWSQQKPGQSPKALIYSASYRYSGVPDRFTGSGSGTDFTLTISNVQSEDLAEYFCQQYKSYPLTFGSGTKLEIK with its measured koff.
Reply: 0.000398
